test name: in vitro
stated conditions: human, LLC-PK1
Description: Apparent permeability across L-MDR1 cells
measurement name: Papp (×10⁻⁶ cm/s)
Quick note: give the figure in ×10⁻⁶ cm/s, leave out the unit.

Here are 6 compounds together with their reported answers.
[Q] Which measured Papp value corresponds to C[C@@]1(N)Cc2ccc(F)c(c2)CC[C@H](c2ccc(F)cc2)NC(=O)c2cc(cc(-c3ccccc3C#N)c2)COC1=O ?
[A] 9

[Q] For C[C@@]1(N)Cc2cccc(c2)CC[C@H](c2ccccc2)NC(=O)c2cc(cc(-c3ccccc3C#N)c2)COC1=O then?
[A] 9

[Q] For CN(C)S(=O)(=O)N(C)c1cc2cc(c1)C(=O)N[C@@H](c1ccccc1)CCc1cccc(c1)C[C@@](C)(N)C(=O)OC2 then?
[A] 15

[Q] For C[C@@]1(N)Cc2ccc(F)c(c2)CC[C@H](c2ccc(F)cc2)NC(=O)c2cc(cc(-c3cccc(F)c3C#N)c2)COC1=O then?
[A] 6

[Q] For CN(c1cc2cc(c1)C(=O)N[C@@H](c1ccccc1)CCc1cccc(c1)C[C@@](C)(N)C(=O)OC2)S(C)(=O)=O then?
[A] 9

[Q] For CN(c1cc2cc(c1)C(=O)N[C@@H](c1ccccc1)CCc1cccc(c1)C[C@@](C)(N)C(=O)OC2)S(=O)(=O)CC(F)(F)F then?
[A] 12

Now, please, on to the next compound.
[Q] Which measured Papp value corresponds to C[C@@]1(N)Cc2cccc(c2)CC[C@H](c2ccc(F)cc2)NC(=O)c2cc(cc(-c3cccc(F)c3C#N)c2)COC1=O ?
[A] 7
